Decomposition efficiency of daidzin family in concentrated soybean protein: recorded values
Test system: Crude diglycosidase
methodSummary: Examination of pH in the conversion into isoflavone aglycons by diglycosidase using soybean materials
Type: biochemical, Penicillium multicolor IAM7153
conditionContext: pH1.6; heat treatment of enzyme: no; reaction time 1 h
Return type: number; implicit unit %.

# count of solved cases: 2
{"mol": "O=c1c(-c2ccc(O)cc2)coc2cc(O[C@@H]3O[C@H](CO)[C@@H](O)[C@H](O)[C@H]3O)ccc12", "testSystem": "Crude diglycosidase", "measurementUnit": "%", "numericValue": 53.0}
{"mol": "O=c1c(-c2ccc(O)cc2)coc2cc(O)ccc12", "testSystem": "Crude diglycosidase", "measurementUnit": "%", "numericValue": 3.3}

Record CC(=O)OC[C@H]1O[C@@H](Oc2ccc3c(=O)c(-c4ccc(O)cc4)coc3c2)[C@H](O)[C@@H](O)[C@@H]1O . Reported Decomposition efficiency of daidzin family in concentrated soybean protein: 43.7

###

Tested on: Crude diglycosidase
methodSummary: Examination of pH in the conversion into isoflavone aglycons by diglycosidase using soybean materials
Assay type: biochemical, Penicillium multicolor IAM7153
conditionContext: pH7.2, heat treatment of enzyme no, reaction time 0 h, 55° C.
experimentalReadout: Decomposition efficiency of glycitin family in soymilk

{"mol": "COc1cc2c(=O)c(-c3ccc(O)cc3)coc2cc1O", "testSystem": "Crude diglycosidase", "result": 6.1}
{"mol": "COc1cc2c(=O)c(-c3ccc(O)cc3)coc2cc1O[C@@H]1O[C@H](COC(=O)CC(=O)O)[C@@H](O)[C@H](O)[C@H]1O", "testSystem": "Crude diglycosidase", "result": 43.9}

Turning to the following compound.
Record COc1cc2c(=O)c(-c3ccc(O)cc3)coc2cc1O[C@@H]1O[C@H](CO)[C@@H](O)[C@H](O)[C@H]1O . Reported Decomposition efficiency of glycitin family in soymilk: 50.0

###

System: Crude diglycosidase
methodSummary: Examination of temperature in the conversion into isoflavone aglycons by diglycosidase using soybean materials
Format: biochemical, Penicillium multicolor IAM7153
conditionContext: 30° C., heat treatment of enzyme yes, reaction time 6 h
experimentalReadout: Decomposition efficiency of genistin family in defatted soybean (%)
Return type: number; implicit unit %.

# count of solved cases: 2
{"molecule": "CC(=O)OC[C@H]1O[C@@H](Oc2cc(O)c3c(=O)c(-c4ccc(O)cc4)coc3c2)[C@H](O)[C@@H](O)[C@@H]1O [acetylgenistin, 6″-O-acetylgenistin]", "measurementUnit": "%", "numericValue": 0.4}
{"molecule": "O=c1c(-c2ccc(O)cc2)coc2cc(O)cc(O)c12 [genistein]", "measurementUnit": "%", "numericValue": 50.2}

Turning to the following molecule.
Record O=C(O)CC(=O)OC[C@H]1O[C@@H](Oc2cc(O)c3c(=O)c(-c4ccc(O)cc4)coc3c2)[C@H](O)[C@@H](O)[C@@H]1O [malonylgenistin, 6″-O-malonylgenistin] . Reported Decomposition efficiency of genistin family in defatted soybean: 49.5

###

Tested on: Crude diglycosidase
methodSummary: Examination of substrate concentration in the conversion into isoflavone aglycons by diglycosidase using soybean materials;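 further: percent of the isoflavone family total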
Format: biochemical, Penicillium multicolor IAM7153
conditionContext: roasted soy flour, substrate concentration 5%, heat treatment of enzyme no, reaction time 6 h
Decomposition efficiency: ratio of each glycoside/aglycon within its isoflavone family: recorded values
Return type: number; implicit unit %.

CC(=O)OC[C@H]1O[C@@H](Oc2ccc3c(=O)c(-c4ccc(O)cc4)coc3c2)[C@H](O)[C@@H](O)[C@@H]1O tested on Crude diglycosidase gave Decomposition efficiency: ratio of each glycoside/aglycon within its isoflavone family: 6.8

CC(=O)OC[C@H]1O[C@@H](Oc2cc(O)c3c(=O)c(-c4ccc(O)cc4)coc3c2)[C@H](O)[C@@H](O)[C@@H]1O tested on Crude diglycosidase gave Decomposition efficiency: ratio of each glycoside/aglycon within its isoflavone family: 9.2
